# Tested on: Helminthosporium sativum
# Assay info: Barley spot blotch, foliar treatment (HEL SAT)
# Type: in vivo
# Condition label: Helminthosporium, foliar, 216 h, foliar, 1,000 mg/l, read-out: Percent Reduction of Disease, HEL SAT
In this section we review reported pest or weed control at 1000 µg/mL values for a set of compounds.
Express the result in % but write the number alone.

INSERT INTO measurements (compound, reported_measurement) VALUES
  ('CC(C)CC(C#N)(CCc1ccc(F)cc1)c1cccnc1 (stereo not shown)', 100),
  ('CCCCCC(CCc1ccc(F)cc1)(C(N)=O)c1cccnc1 (stereo not shown)', 0),
  ('CCCCCCC(C#N)(Cc1ccc(C(C)(C)C)cc1)c1cccnc1 (stereo not shown)', 85),
  ('C=CCC(C#N)(CCc1ccccc1)c1cccnc1 (stereo not shown)', 70),
  ('C#CCC(CCc1ccccc1)(C(N)=S)c1cccnc1 (stereo not shown)', 85),
  ('CC(C)CCC(C#N)(CCc1ccc(F)cc1)c1cccnc1 (stereo not shown)', 100),
  ('N#CC(CCCC(F)(F)F)(CCc1ccc(F)cc1)c1cccnc1 (stereo not shown)', 83),
  ('CCCCOc1ccc(CCC(C#N)(CCCC)c2cccnc2)cc1 (stereo not shown)', 100);

CCCC(C#N)(CCc1ccccc1F)c1cccnc1 (stereo not shown) on Helminthosporium sativum gives pest or weed control at 1000 µg/mL = 92

C=CCC(C#N)(Cc1ccc(C(C)(C)C)cc1)c1cccnc1 (stereo not shown) on Helminthosporium sativum gives pest or weed control at 1000 µg/mL = 100

====

# System: Erysiphe graminis
# Assay info: Powdery mildew of barley, systemic root uptake (BMS)
# Format: in vivo
# Condition label: 45 ml of 250 mg/l, 8 days after inoculation
Readout name: Percent Reduction of Disease, BMS (%)
Express the result in % but write the number alone.

Worked examples, 5 compounds total:
INSERT INTO assay_data (compound, readout_name, unit_of_measure, reported_measurement) VALUES
  ('COc1ccc(CCC(C#N)(CC=C(C)C)c2cccnc2)cc1 (stereo not drawn) [Compound 48]', 'Percent Reduction of Disease, BMS', '%', 0),
  ('N#CC(CCCC(F)(F)F)(CCc1ccc(F)cc1)c1cccnc1 (stereo not drawn) [Compound 78]', 'Percent Reduction of Disease, BMS', '%', 100),
  ('CCCC(C#N)(Cc1ccc(C(C)(C)C)cc1)c1cccnc1 (stereo not drawn) [Compound 14]', 'Percent Reduction of Disease, BMS', '%', 0),
  ('CC(C)(C)c1ccc(CC(C#N)(Cc2ccc(C(C)(C)C)cc2)c2cccnc2)cc1 [B, reference compound]', 'Percent Reduction of Disease, BMS', '%', 10),
  ('CCCCCCC(C#N)(Cc1ccc(C(C)(C)C)cc1)c1cccnc1 (stereo not drawn) [Compound 16]', 'Percent Reduction of Disease, BMS', '%', 0);

N#CC(CCCF)(CCc1ccc(F)cc1)c1cccnc1 (stereo not drawn) [Compound 64] on Erysiphe graminis gives Percent Reduction of Disease, BMS = 20

CC(C)CCC(C#N)(CCc1ccc(F)cc1)c1cccnc1 (stereo not drawn) [Compound 49] on Erysiphe graminis gives Percent Reduction of Disease, BMS = 0

CC=CCC(C#N)(CCc1ccc(F)cc1)c1cccnc1 (stereo not drawn) [Compound 59] on Erysiphe graminis gives Percent Reduction of Disease, BMS = 75

C#CCC(C#N)(CCc1ccc(F)cc1)c1cccnc1 (stereo not drawn) [Compound 41] on Erysiphe graminis gives Percent Reduction of Disease, BMS = 0

====

# System: Cercosporidium personatum
# Assay info: Fungal germination and growth, treated disc on agar, scored (CER PER)
# Type: cell-based
# Parameters: key: 100: Complete inhibition of germination and growth.; 80: Nearly complete inhibition but some growth.; 50: Partial inhibition of growth or, early complete inhibition but later growth begins.; 20: Some inhibition of growth, but not significant.; 0: No inhibition of growth
# Condition label: disc dipped in 500 mg/l, 29° C., numerical score 0-100, spore suspension
In this section we review reported CER PER inhibition score values for a set of molecules.

Worked examples, 3 molecules total:
INSERT INTO assay_data (molecule, reported_measurement) VALUES
  ('CC(C)CC(C#N)(CCc1ccc(F)cc1)c1cccnc1 (stereo not drawn)', 0),
  ('CCCCC(C#N)(CCc1ccccc1F)c1cccnc1 (stereo not drawn)', 0),
  ('CCCCC(C#N)(CCCc1ccc(Cl)cc1)c1cccnc1 (stereo not drawn)', 0);

CER PER inhibition score reported for this molecule C=CCC(C#N)(CCc1ccc(OCC)cc1)c1cccnc1 (stereo not drawn) : 0

CER PER inhibition score reported for this molecule C#CCC(C#N)(CCc1ccccc1)c1cccnc1 (stereo not drawn) : 100

CER PER inhibition score reported for this molecule CCCCC(C#N)(CCCc1ccccc1OC)c1cccnc1 (stereo not drawn) : 0

CER PER inhibition score reported for this molecule CCCC(C#N)(CCc1ccc(F)cc1)c1cccnc1 (stereo not drawn) : 100

CER PER inhibition score reported for this molecule CCCC(C#N)(CCCc1ccc(Cl)cc1)c1cccnc1 (stereo not drawn) : 100

CER PER inhibition score reported for this molecule C=CCC(C#N)(CCc1ccc(OC)cc1)c1ccccn1 (stereo not drawn) : 100

====

# System: Erysiphe graminis
# Assay info: Powdery mildew of barley, systemic root uptake (BMS)
# Type: in vivo
# Condition label: 45 ml of 250 mg/l, 8 days after inoculation
Readout name: Percent Reduction of Disease, BMS (%)
Express the result in % but write the number alone.

INSERT INTO measurements (molecule, readout_name, reported_measurement) VALUES
  ('CCCCOc1ccc(CCC(C#N)(CCCC)c2cccnc2)cc1 (centres unmarked) [Compound 54]', 'Percent Reduction of Disease, BMS', 0);

Percent Reduction of Disease, BMS reported for this molecule N#CC(CCCF)(CCc1ccccc1F)c1cccnc1 (centres unmarked) [Compound 66] : 100

Percent Reduction of Disease, BMS reported for this molecule CCCC(C#N)(CCc1ccccc1)c1ccncc1 (centres unmarked) [Compound 25] : 0

Percent Reduction of Disease, BMS reported for this molecule CCCCC(C#N)(CCc1ccccc1)c1ccncc1 (centres unmarked) [Compound 26] : 0

Percent Reduction of Disease, BMS reported for this molecule CCCCC(C#N)(CCCc1ccccc1OC)c1cccnc1 (centres unmarked) [Compound 63] : 0

====

# System: Helminthosporium sativum
# Assay info: Barley spot blotch, foliar treatment (HEL SAT)
# Type: in vivo
# Condition label: Helminthosporium, foliar, 216 h, foliar, 1,000 mg/l, read-out: Percent Reduction of Disease, HEL SAT
In this section we review reported pest or weed control at 1000 µg/mL values for a set of compounds.
Express the result in % but write the number alone.

INSERT INTO measurements (compound, reported_measurement) VALUES
  ('C#CCC(C#N)(CCc1ccc(OC)cc1)c1cccnc1 (centres unmarked)', 100),
  ('CCCC(C#N)(CCc1ccccc1)c1cccnc1 (centres unmarked)', 65),
  ('CCCC(C#N)(CCCc1ccccc1OC)c1cccnc1 (centres unmarked)', 100),
  ('CCCCOc1ccc(CCC(C#N)(CCC)c2cccnc2)cc1 (centres unmarked)', 100);

pest or weed control at 1000 µg/mL reported for this compound CC=CCC(C#N)(CCc1ccc(F)cc1)c1cccnc1 (centres unmarked) : 90

====

# System: Pythium ultimum
# Assay info: Fungal growth inhibition, treated disc on agar (PYT ULT)
# Assay type: cell-based
# Condition label: disc dipped in 500 mg/l, 29° C.
Readout name: Percent Growth Inhibition, PYT ULT (%)
Express the result in % but write the number alone.

INSERT INTO results (molecule, readout_name, reported_measurement) VALUES
  ('CCCCC(C#N)(CCc1ccc(OCC)cc1)c1cccnc1.Cl (centres unmarked) [Compound 42]', 'Percent Growth Inhibition, PYT ULT', 3),
  ('CCCCCC(C#N)(CCc1ccc(OC)cc1)c1ccccn1 (centres unmarked) [Compound 30]', 'Percent Growth Inhibition, PYT ULT', 0),
  ('CCCCC(C#N)(CCc1ccc(OCCC)cc1)c1cccnc1 (centres unmarked) [Compound 69]', 'Percent Growth Inhibition, PYT ULT', 35);

Percent Growth Inhibition, PYT ULT reported for this molecule CC(C)CCC(C#N)(CCc1ccc(F)cc1)c1cccnc1 (centres unmarked) [Compound 55] : 20

Percent Growth Inhibition, PYT ULT reported for this molecule CCCCC(C#N)(CCc1ccc(OCC)cc1)c1cccnc1 (centres unmarked) [Compound 35] : 0

====

# Test system: Erysiphe graminis
# Assay info: Powdery mildew of barley, systemic root uptake (BMS)
# Assay type: in vivo
# Condition label: 45 ml of 250 mg/l, 8 days after inoculation
Readout name: Percent Reduction of Disease, BMS (%)
Express the result in % but write the number alone.

Worked examples, 2 molecules total:
INSERT INTO results (molecule, unit_of_measure, reported_measurement) VALUES
  ('CCCCCC(C#N)(CCc1ccc(OC)cc1)c1ccccn1 (stereo not shown)', '%', 0),
  ('CCCCC(C#N)(CCc1ccc(OCC)cc1)c1cccnc1 (stereo not shown)', '%', 0);

Percent Reduction of Disease, BMS reported for this molecule CCCCC(C#N)(CCc1ccccc1F)c1cccnc1 (stereo not shown) : 100

Percent Reduction of Disease, BMS reported for this molecule C=CCC(C#N)(CCCc1ccccc1OC)c1cccnc1 (stereo not shown) : 40

Percent Reduction of Disease, BMS reported for this molecule CCOc1ccc(CCC(C#N)(CC(C)C)c2cccnc2)cc1 (stereo not shown) : 0

Percent Reduction of Disease, BMS reported for this molecule CCCCC(C#N)(CCc1ccc(F)cc1)c1cccnc1 (stereo not shown) : 74

Percent Reduction of Disease, BMS reported for this molecule CCCCOc1ccc(CCC(C#N)(CCC)c2cccnc2)cc1 (stereo not shown) : 0

Percent Reduction of Disease, BMS reported for this molecule CCCCC(C#N)(CCc1ccc(OCCC)cc1)c1cccnc1 (stereo not shown) : 0

Percent Reduction of Disease, BMS reported for this molecule CCCCCCCC(C#N)(CCc1ccccc1)c1cccnc1 (stereo not shown) : 0

Percent Reduction of Disease, BMS reported for this molecule N#CC(CCF)(CCc1ccc(F)cc1)c1cccnc1 (stereo not shown) : 100

// data source = patent US5945436A
